Assay: antimalarial activity against Dd2 strain (AID 2302);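 note: 0% = DMSO untreated growth and 100% = chloroquine plus artemisinin killed control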
Conditions: P. falciparum Dd2 in RBCs, LDH growth readout, 72 h; at 2 µM; stronger effect = higher value
Calls of active or inactive are those of the source.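 Rule for the calls: active = growth inhibition above 50% at the single 2 µM test dose, taken to imply half-maximal potency below 2 µM; inactive = the rest.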
result.type: growth inhibition

Worked examples, 2 molecules total:
>>> print(df.to_string())
                                   molecule   result_value
0  CCN(CC)CCN1C(=O)C(O)(c2ccccc2Cl)c2c1cc(C(N)=O)cc2C(F)(F)F (stereo not drawn)   86% (active)
1  O=C(c1cc(C(=O)NCc2ccc(Cl)cc2)c(=O)n(Cc2ccc(Cl)cc2)c1)c1cc(Cl)ccc1O  4% (inactive)

Problem: growth inhibition for "CN1CC=C(c2c[nH]c3ccc(Sc4ccccc4)cc23)CC1" ?
Result: 99% (active)

Problem: Cool, now "Cc1[nH]c2c(C)cc(NS(C)(=O)=O)cc2c1C1CCN(CC2CCN(C(=O)/C=C/c3ccc(Cl)c(Cl)c3)CC2)CC1"
Result: 99% (active)

Problem: Cool, now COc1cc(C(=O)NC2CCC(CN3CCC(c4c[nH]c5ccccc45)CC3)CC2)cc(Cl)n1 (stereo not drawn)
Result: 45% (inactive)

Problem: Cool, now Cc1ccc(CC(C)NCC(O)c2cccc(C(F)(F)F)c2)c(C)c1 (stereo not drawn)
Result: 99% (active)

Problem: Cool, now CCC1(C)CC(CCNCc2ccccc2O)(c2ccc(C)cc2)CCO1 (stereo not drawn)
Result: 66% (active)

Problem: Cool, now CC(Cc1ccc(OC2CCCCC2)cc1)NCC(O)c1cccc(Cl)c1 (stereo not drawn)
Result: 99% (active)

Problem: Cool, now "CC(=O)Nc1ccc(CN2CCC(N(C)c3cc(NC(=O)c4cccc(F)c4)ccn3)CC2)cc1"
Result: -1% (inactive)

Problem: Cool, now "COCCNCc1cccc(-c2ccc(CN(C(=O)Nc3ccccc3)C3CCN(Cc4ccccc4)CC3)cc2)c1"
Result: 45% (inactive)

* * *

Test: glucagon-like peptide 1 release enhancers, primary assay, NCI-H716 cell line, NPC library (AID 1117341); note: reference of the scale not given here
Conditions: NCI-H716 cells, at 10 µM, stronger effect = higher value
result.type: GLP1 secretion stimulation (%)
Give the quantity in %, number only.

Worked examples, 3 compounds total:
In [3]: df
Out[3]:
                                   compound  result_value
0                    CNC(=O)Oc1cccc2ccccc12          -5.4
1  Cc1nnc2n1-c1sc(CCC(=O)N3CCOCC3)cc1C(c1ccccc1Cl)=NC2           0.4
2  COC1CC(=C(c2cccs2)c2cccs2)C[N+](C)(C)C1 (stereo unspecified)          -0.6

Problem: GLP1 secretion stimulation for "CCCN(CCC)C(=O)Cc1c(-c2ccc(Cl)cc2)nc2ccc(Cl)cn12" ?
Result: -2.3

Problem: Cool, now CCC(=O)O[C@@H]1C=C2CCC3C(CCC4(C)C3CC[C@@H]4OC(=O)CC)C2CC1 (stereo partly specified)
Result: -4.4

Problem: Cool, now "C=C(C)[C@H]1CN[C@H](C(=O)O)[C@H]1CC(=O)O"
Result: -2

* * *

Test: HCT116 colon cancer cell growth inhibition, primary screen, CellTiter-Glo luminescence, NPC library (AID 1117342)
Settings: at 20 µM (top of the series)
Active and inactive are the calls of the source.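 How the source made its calls: active means compounds that lower survival of HCT116 colon cancer cells in the luminescence readout, no numeric limit stated; inactive means the rest.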
Output constraint: value belongs to label 1 for active, label 0 for inactive

# example entries with known answers
molecule	answer.label
COC1CC(=C(c2cccs2)c2cccs2)C[N+](C)(C)C1 (centres undefined)	label 0
Cc1cc(O)ccc1Cl	label 0
C[C@]12C=CC(=O)C=C1CC[C@@H]1[C@@H]2CC[C@@]2(C)[C@H]1CC[C@]2(C)O	label 0
Oc1ccc(Cl)cc1	label 0
O=[N+]([O-])O[C@H]1CO[C@H]2[C@@H]1OC[C@H]2O[N+](=O)[O-]	label 0

Problem: Assay outcome for "CC(=O)O[C@H]1C[C@H](O[C@H]2[C@@H](O)C[C@H](O[C@@H]3[C@@H](O)C[C@H](O[C@H]4CC[C@@]5(C)[C@H](CC[C@@H]6[C@H]5C[C@@H](O)[C@]5(C)[C@@H](C7=CC(=O)OC7)CC[C@]65O)C4)O[C@@H]3C)O[C@@H]2C)O[C@H](C)[C@H]1O[C@@H]1O[C@H](CO)[C@@H](O)[C@H](O)[C@@H]1O" : what was it?
Result: label 1

Problem: Cool, now "Cc1cccc(C)c1NC1=NCCCS1"
Result: label 0

Problem: Cool, now "c1ccc2c(c1)Nc1ccccc1S2"
Result: label 0

Problem: Cool, now "Nc1ccccc1C(=O)O"
Result: label 0

* * *

Test system: R275C
Test: modulators of BK channel variants, profiling panel, selectivity assay, cell-based, U2OS BacMam, thallium flux, beta subunits (AID 1259406);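 note: initial slope of Thallos dye fluorescence rise after thallium is added; log ratio against the mean of 0.3% DMSO vehicle wells on the same plate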
Settings: at 30 µM
Quick rule for you: log fold change Tl+ flux under -0.02 gets Condition met, anything else gets Condition not met.

Problem: Quick check: log fold change Tl+ flux of "O=C1CC[C@@]2(O)[C@H]3Cc4ccc(O)c5c4[C@@]2(CCN3CC2CC2)[C@H]1O5" under -0.02?
Result: Condition met

Problem: Cool, now Clc1ccc(COC(Cn2ccnc2)c2ccc(Cl)cc2Cl)cc1 (stereo unspecified)
Result: Condition not met

Problem: Cool, now "CC[C@]1(O)CC[C@H]2[C@@H]3CCC4=CCCC[C@@H]4[C@H]3CC[C@@]21C"
Result: Condition not met

Problem: Cool, now "CC(C)[C@]12O[C@H]1[C@@H]1O[C@]13[C@]1(O[C@H]1C[C@H]1C4=C(CC[C@@]13C)C(=O)OC4)[C@@H]2O"
Result: Condition not met

Problem: Cool, now "Cc1nnc2n1-c1ccc(Cl)cc1C(c1ccccc1)=NC2"
Result: Condition not met

Problem: Cool, now "CSC(=NCc1ccccc1Cl)NC(N)=N[N+](=O)[O-]"
Result: Condition not met

Problem: Cool, now "CN[C@@H]1C[C@@H](c2ccc(Cl)c(Cl)c2)c2ccccc21"
Result: Condition met

Problem: Cool, now "C[N+]1(CCC(C(N)=O)(c2ccccc2)c2ccccc2)CCCCC1"
Result: Condition not met

Problem: Cool, now "C[N+]1(C)CCN(c2ccccc2)CC1"
Result: Condition met

* * *

Experiment: growth inhibition of DIPG glioma cells, dose response, cell-based, JHH-DIPG-1, MIPE4.0, CellTiter-Glo, qHTS (AID 1347062);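 for AC50: cells exposed to compound for two days before readout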
Details: JHH-DIPG-1 viability, CellTiter-Glo ATP luminescence
Inconclusive results are not listed. Activity calls are given as the source filed them. Cut-off not given; nearly all actives show AC50 up to about 27 µM.
Output constraint: value belongs to active, inactive

compound	answer.label
CNC(=O)c1ccc(N2C(=S)N(c3ccc(C#N)c(C(F)(F)F)c3)C(=O)C23CCC3)cc1F	active

Problem: Assay outcome for "O=C1CCC[C@@H]2[C@H]3CCCN4CCC[C@@H](CN12)[C@@H]34" : what was it?
Result: inactive

Problem: Cool, now "O=C(NCC1CCOCC1)c1cnc(Nc2ccc(Cl)cc2Cl)nc1C(F)(F)F"
Result: active

* * *

Experiment: stimulators of insulin release from INS-1E, primary screen, cell-based, 5 mM glucose, NPC library (AID 1117329); note: reference of the scale not given here
Details: rat INS-1E insulin secretion, at 10 µM, stronger effect = higher value
Calls of active or inactive are those of the source.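 How the source made its calls: active means compound raises insulin release from rat beta cells at 5 mM glucose, no numeric limit stated; inactive means the rest.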
result.type: insulin secretion stimulation

>>> df
                                   compound                    result_type      result_value
0  Nc1ccccc1C(=O)OCC(O)CO (configuration not stated)  insulin secretion stimulation  -1.4% (inactive)
1           CN1CCC(N(Cc2ccccc2)c2ccccc2)CC1  insulin secretion stimulation  14.1% (inactive)
2  COCC(=O)N(c1c(C)cccc1C)C(C)C(=O)OC (configuration not stated)  insulin secretion stimulation  -1.7% (inactive)
3  O=C(N[C@H]1N=C(c2ccccc2F)c2cccc3c2N(CC3)C1=O)c1cc2ccccc2[nH]1  insulin secretion stimulation   3.5% (inactive)

Problem: insulin secretion stimulation for "Nc1ccc(Cl)cc1C(=O)c1ccccc1F" ?
Result: 5% (inactive)

Problem: Cool, now "CN1CCN(C(=O)O[C@H]2c3nccnc3C(=O)N2c2ccc(Cl)cn2)CC1"
Result: 2.3% (inactive)

Problem: Cool, now "CC(C)(O)C(Cl)(Cl)Cl"
Result: -2.2% (inactive)

Problem: Cool, now "O=C1c2ccccc2C(=O)C1C(=O)C(c1ccccc1)c1ccccc1"
Result: -2.2% (inactive)

Problem: Cool, now "NC(=O)CN1CCCC1=O"
Result: 0.2% (inactive)

Problem: Cool, now CC(C)NCC(O)c1ccccc1Cl (configuration not stated)
Result: 11.3% (inactive)

Problem: Cool, now CC(=O)NC1CCSC1=O (configuration not stated)
Result: 0.7% (inactive)

Problem: Cool, now "C[C@]12Cc3nonc3C[C@@H]1CC[C@@H]1[C@@H]2CC[C@@]2(C)[C@H]1CC[C@]2(C)O"
Result: -2.4% (inactive)
